Could you please report measured pIC50 for the items listed next?
- TESTED TARGET: SARS-CoV-2 main protease (M^pro) (Severe acute respiratory syndrome coronavirus 2)
- ASSAY PROCEDURE: Rapid-Fire MS Biochemical Assay measuring Mpro activity (5 nM Mpro)
- CONDITION PARAMETERS: Table 1B, Mpro inhibition, 5 μM substrate peptide, 120 min, read-out: Rapid-Fire Assay IC50
pIC50: −log10 of the molar value.

Examples with answers:
{"MOLECULE": "N#C[C@H]1CN([C@@H]2CCN(CCC(F)(F)F)C2)C(=O)N1c1cncc2ccccc12 (single isomer, unassigned) [Compound 26a]", "TESTED TARGET": "SARS-CoV-2 main protease (M^pro) (Severe acute respiratory syndrome coronavirus 2)", "EXPERIMENTAL VALUE": "6.00 to 6.70"}
{"MOLECULE": "N#C[C@H]1CN(c2ccc(C(F)(F)F)cc2)C(=O)N1c1cncc2ccccc12 (single isomer, unassigned) [Compound 99a]", "TESTED TARGET": "SARS-CoV-2 main protease (M^pro) (Severe acute respiratory syndrome coronavirus 2)", "EXPERIMENTAL VALUE": "> 7.70"}
{"MOLECULE": "N#C[C@H]1CN([C@H]2C[C@@H](C3CC3)C2)C(=O)N1c1cncc2ccccc12 [Compound 124a]", "TESTED TARGET": "SARS-CoV-2 main protease (M^pro) (Severe acute respiratory syndrome coronavirus 2)", "EXPERIMENTAL VALUE": "> 7.70"}

Please give pIC50 for each item listed below.
1. N#C[C@H]1CN(c2ccc(F)c(F)c2)C(=O)N1c1cncc2ccccc12 (single isomer, unassigned) [Compound 72a]
2. N#C[C@@H]1CN(c2cccc(OC(F)(F)F)c2)C(=O)N1c1cncc2ccccc12 (single isomer, unassigned) [Compound 92b]

Ans.
1: > 7.70; 2: 6.00 to 6.70
